tested on: K-562; experiment: In vitro antiproliferative assay; type: cell-based, human; settings: Homo sapiens, K562, 48 h
ENDPOINT: IC50 (µM)
// return numeric value only (unit: µM, not printed)

## Task Provide the reported IC50 (system: K-562) for `CCNc1nc2ccccc2c2c(=O)c3cc(Cl)ccc3sc12`
## Result 100

====

tested on: HOP-62; assay: In vitro antiproliferative assay; type: cell-based, human; conditions: Homo sapiens, HOP-62, 48 h
ENDPOINT: pIC50
Please express pIC50 as -log10 of the molar concentration.

## Task Could you please provide reported pIC50 for `CCNc1nc2ccccc2c2c(=O)c3cc(Cl)ccc3sc12` ? Thanks!
## Result 4.88

====

test: In vivo pharmacokinetics in rats; set-up: species or system Male albino Wistar rats; conditions: male, Wistar, rat, plasma, po, 5 mg/kg
ENDPOINT: Cmax (ng/mL)
// return numeric value only (unit: ng/mL, not printed)

## Task Could you please provide reported Cmax for `CCNc1nc2ccccc2c2c(=O)c3cc(Cl)ccc3sc12` ? Thanks!
## Result 1760

====

test: In vivo pharmacokinetics in rats; design: species or system Male albino Wistar rats; conditions: male, Wistar, rat, plasma, po, 5 mg/kg
ENDPOINT: AUC(0-t)
Remember to put the unit after the number in your answer.

## Task Could you please provide reported AUC(0-t) for CCNc1nc2ccccc2c2c(=O)c3cc(Cl)ccc3sc12 [RXn-02] ? Thanks!
## Result 18900 ng·h/mL

Origin of values: paper PMC9272679
